Tested on: MCF7;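 note: secreted proteins added to cultured cells, EdU pulse at the end, nuclei found by Hoechst imaging, EdU status from nuclear versus surrounding ring intensity ratio, PBS as neutral control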
Assay: percentage of EdU-negative (G0-arrested) nuclei per well, 72 h; higher = more G0 arrest
Conditions: protein concentration 0.0225 µM; reference: sequence is the full UniProt precursor, the tested protein was the secreted form or ectodomain
REPORTED_METRIC: percentage of EdU-negative
Enter the number, and then the unit.

MAAPVPWACCAVLAAAAAVVYAQRHSPQEAPHVQYERLGSDVTLPCGTANWDAAVTWRVNGTDLAPDLLNGSQLVLHGLELGHSGLYACFHRDSWHLRHQVLLHVGLPPREPVLSCRSNTYPKGFYCSWHLPTPTYIPNTFNVTVLHGSKIMVCEKDPALKNRCHIRYMHLFSTIKYKVSISVSNALGHNATAITFDEFTIVKPDPPENVVARPVPSNPRRLEVTWQTPSTWPDPESFPLKFFLRYRPLILDQWQHVELSDGTAHTITDAYAGKEYIIQVAAKDNEIGTWSDWSVAAHATPWTEEPRHLTTEAQAAETTTSTTSSLAPPPTTKICDPGELGSGGGPSAPFLVSVPITLALAAAAATASSLLI: 25%
MDYPTLLLALLHVYRALCEEVLWHTSVPFAENMSLECVYPSMGILTQVEWFKIGTQQDSIAIFSPTHGMVIRKPYAERVYFLNSTMASNNMTLFFRNASEDDVGYYSCSLYTYPQGTWQKVIQVVQSDSFEAAVPSNSHIVSEPGKNVTLTCQPQMTWPVQAVRWEKIQPRQIDLLTYCNLVHGRNFTSKFPRQIVSNCSHGRWSVIVIPDVTVSDSGLYRCYLQASAGENETFVMRLTVAEGKTDNQYTLFVAGGTVLLLLFVISITTIIVIFLNRRRRRERRDLFTESWDTQKAPNNYRSPISTSQPTNQSMDDTREDIYVNYPTFSRRPKTRV: 25.5%
MAKMNLSSYILILTFSLFSQGILLSASKSIRNLDDDMVFNTFRLGKGFQKEDTAEKSVIAPSLEQYKNDESSFMNEEENKVSKNTGSKHNFLNHGLPLNLAIKPYLALKGSVAFPAENGVQNTESTQEKREIGDEENSAKFPIGRRDFDMLRCMLGRVYRPCWQV: 26%
MQWLRVRESPGEATGHRVTMGTAALGPVWAALLLFLLMCEIPMVELTFDRAVASGCQRCCDSEDPLDPAHVSSASSSGRPHALPEIRPYINITILKGDKGDPGPMGLPGYMGREGPQGEPGPQGSKGDKGEMGSPGAPCQKRFFAFSVGRKTALHSGEDFQTLLFERVFVNLDGCFDMATGQFAAPLRGIYFFSLNVHSWNYKETYVHIMHNQKEAVILYAQPSERSIMQSQSVMLDLAYGDRVWVRLFKRQRENAIYSNDFDTYITFSGHLIKAEDD [Q9BXI9]: 26.9%

For the next question, use this sequence.
Name the recorded percentage of EdU-negative for MKTGHFEIVTMLLATMILVDIFQVKAEVLDMADNAFDDEYLKCTDRMEIKYVPQLLKEEKASHQQLDTVWENAKAKWAARKTQIFLPMNFKDNHGIALMAYISEAQEQTPFYHLFSEAVKMAGQSREDYIYGFQFKAFHFYLTRALQLLRKPCEASSKTVVYRTSQGTSFTFGGLNQARFGHFTLAYSAKPQAANDQLTVLSIYTCLGVDIENFLDKESERITLIPLNEVFQVSQEGAGNNLILQSINKTCSHYECAFLGGLKTENCIENLEYFQPIYVYNPGEKNQKLEDHSEKNWKLEDHGEKNQKLEDHGVKILEPTQIPGMKIPEPFPLPEDKSQGNINNPTPGPVPVPGPKSHPSASSGKLLLPQFGMVIILISVSAINLFVAL . 25%

This collection of values is drawn from the supplement of paper PMC11316812.
